IC50 for assorted molecules
Test system: prostate cancer cell lines (e.g. DU145/TXR)
Test: Cell based assay, cell viability (CellTiter-Glo), prostate cancer cell lines
Conditions: Homo sapiens, LNcap cells, 72 hours treatment, final concentration 0 to 2 μM, read-out: IC50, prostate cancer cell line LNcap

Illustrative cases are given below, each with its answer.
molecule: CC(=O)c1c([S+]([O-])c2ccccc2)[nH]c2c(Br)ccc(Cl)c2c1=O (stereo not drawn)
system_name: prostate cancer cell lines (e.g. DU145/TXR)
IC50: > 2000 nM

molecule: CC(=O)c1c([S+]([O-])Cc2cnc3[nH]ccc3c2)[nH]c2c(Br)ccc(Cl)c2c1=O (stereo not drawn)
system_name: prostate cancer cell lines (e.g. DU145/TXR)
IC50: > 2000 nM

Continue with the next molecule.
Need IC50, item CC(=O)c1c([S+]([O-])Cc2ccc(OC(F)(F)F)cc2)[nH]c2c(Br)ccc(Cl)c2c1=O (stereo not drawn) > 2000 nM

Every entry's value here was drawn from patent US11464770B2.
